Each item that follows carries a reported GI50.
Test system: HOP-62
Protocol: NCI tumour cell line growth inhibition, 48 h
Active and inactive are the calls of the source. Cut-off read from the data, not from the text of the source: active = GI50 up to about 1.1 µM and inactive = higher.

// worked examples, GI50 included
                                   compound               result
0  O=NN(Cc1ccc(Cl)cc1)C(C(=O)O)c1ccccc1 (stereo not given)  > 100 µM (inactive)
1  CC(=O)N(CCc1ccccc1)C(C#N)c1ccccc1 (stereo not given)  > 100 µM (inactive)
2  Cc1cc(O)c2c(c1O)C(=O)C1=C(C2=O)C(=O)C2C(O)C1C1C(O)CC(O)=C3C(=O)c4c(O)cc(C)c(O)c4C(=O)C321 (stereo not given)   2.48 µM (inactive)
3     O=C1Oc2ccccc2N/C1=C/C(=O)c1ccc(Cl)cc1  > 100 µM (inactive)
4  CN(CO)c1nc(N(C)CO)nc(N(C)CO)n1 [TRIMELAMOL]     20 µM (inactive)
5  Cc1ccc(C(=O)N/N=C(\N=N\c2cccc(C)c2)c2ccc(N(CCC#N)CCC#N)cc2C)cc1  > 100 µM (inactive)
6  Cn1c(=O)c2c(nc3n2CCCC(=O)N3CC(O)CCl)n(C)c1=O (stereo not given)  > 100 µM (inactive)
7            COc1ccc(C(=O)CCN(C)C)c2ccccc12   24.1 µM (inactive)

Request: Answer with the recorded GI50 for the compound listed here: CSc1c([S+](C)[O-])c2ccccc2n1C (stereo not given)
Result: > 100 µM (inactive)

Request: Please report the measured GI50 for COC(=O)[C@]12CSC[C@H]1C[C@H](c1ccccc1OC)N2
Result: > 100 µM (inactive)

---

Test system: COLO 205
Protocol: NCI tumour cell line growth inhibition, 48 h
Activity calls are given as the source filed them. No stated cut-off is given here; in the data, active = GI50 up to about 1.1 µM and inactive = higher.
Measured GI50 of individual entries

These solved cases illustrate the format of a correct answer.
                                   compound               result
0  CN1CCN(CC(=O)N2c3ccccc3Sc3cc4ccccc4cc32)CC1   13.9 µM (inactive)
1  CN(c1ccccc1)S(=O)(=O)c1ccc([N+](=O)[O-])cc1  > 100 µM (inactive)
2        Nc1nc(SC/C=C/c2ccccc2)c2[nH]cnc2n1  > 100 µM (inactive)
3  Cc1c(C)c(S(=O)(=O)N(CCCCN)OCCCN)c(C)c2c1OC(C)(C)CC2   31.2 µM (inactive)
4  CC1=C(Cl)C=CP(=O)(OC(C)C)C1 (stereo unspecified)  > 100 µM (inactive)

Continue with the compound presented below.
Request: # return recorded GI50 for input CC1CCCN(CP(=O)(c2ccccc2)c2ccccc2)C1 (stereo unspecified)
Result: > 100 µM (inactive)

---

The entries below come with measured GI50 values attached.
Test system: NCI/ADR-RES
Protocol: NCI tumour cell line growth inhibition, 48 h
Calls of active or inactive are those of the source. No stated cut-off is given here; in the data, active = GI50 up to about 1.1 µM and inactive = higher.

Molecule	Measured target	GI50
COc1nc(C#CC(C)(C)C)nc(OC)n1	NCI/ADR-RES	21 µM (inactive)

Request: Note down GI50 recorded for COC(=O)[C@]1(C)CCC[C@@]2(C)[C@@H]3C[C@@H]4[C@H]5C[C@@]3(CC[C@@H]21)C[C@@]45C
Result: 15.7 µM (inactive)

Request: Tell us which GI50 value is on record for COc1ccc(NC(=O)CC(=O)N2N=C(N(c3ccccc3)c3ccccc3)CC2c2ccccc2)cc1 (centres undefined)
Result: > 100 µM (inactive)

Request: Consider the molecule [O-][n+]1c(CN2CCCCC2)nc2cccc3c2c1-c1ccccc1-3 and give its recorded GI50.
Result: 22.4 µM (inactive)

Request: Tell me measured GI50 for On1c(-c2ccccc2)nc2ccccc2c1=S please.
Result: 4.2 µM (inactive)

Request: Recall and state the measured GI50 for CC(=O)CC(C)(C)NC(=O)[C@@]1(O)CC[C@H]2[C@@H]3CCC4=CC(=O)CC[C@@H]4[C@H]3CC[C@@]21C .
Result: > 100 µM (inactive)

Request: Entry CC(=O)OCC1OC(OC2CC3C(C)(C)C(OC(C)=O)CC[C@]3(C)C3CCC45CC4(CCC5[C@@H](C)C[C@H](O)C(O)C(C)(C)O)[C@]23C)C(O)C(O)C1O (some centres undefined) needs its GI50 filled in; supply it.
Result: > 10 µM (inactive)

Request: Read the entry O=NN(Cc1ccc(Cl)cc1)C(C(=O)O)c1ccccc1 (centres undefined) and write its reported GI50.
Result: > 100 µM (inactive)

Request: State its GI50 for this molecule: CCCCCOc1ccc(/C=N\c2ccc(-c3ccc(/N=C\c4ccc(OCCCCC)cc4)c(OC)c3)cc2OC)cc1
Result: > 100 µM (inactive)
